Target: T1, murine GPC3-His protein (Sino Biological, Cat. No. 50989-M08B) (murine, UniProt Q8CFZ4 25-558)
T1 construct: Bought protein; also called murine GPC3 protein; mouse GPC3-his protein; not shown: His tag
T1 sequence (Q8CFZ4 25-558 limits assumed): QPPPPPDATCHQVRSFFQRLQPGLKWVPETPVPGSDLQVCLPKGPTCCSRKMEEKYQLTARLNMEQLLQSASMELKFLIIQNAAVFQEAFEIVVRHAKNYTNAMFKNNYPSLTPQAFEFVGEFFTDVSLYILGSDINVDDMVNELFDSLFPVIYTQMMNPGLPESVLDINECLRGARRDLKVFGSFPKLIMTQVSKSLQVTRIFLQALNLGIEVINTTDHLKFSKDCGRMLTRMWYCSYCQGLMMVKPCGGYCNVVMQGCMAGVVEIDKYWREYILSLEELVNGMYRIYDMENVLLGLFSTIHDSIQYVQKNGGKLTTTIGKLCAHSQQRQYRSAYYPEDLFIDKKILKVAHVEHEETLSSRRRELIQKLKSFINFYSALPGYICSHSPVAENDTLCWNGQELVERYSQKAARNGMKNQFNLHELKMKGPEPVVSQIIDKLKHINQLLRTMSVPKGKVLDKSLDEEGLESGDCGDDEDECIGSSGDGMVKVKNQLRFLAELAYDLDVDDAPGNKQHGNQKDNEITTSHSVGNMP
Assay: ELISA, coated antigen
Assay Readout: binding result

Check the records and state binding result for hAb006LH3L1e (antibody, human IgG1, V domains shown, Humanized F3.38.7) VH: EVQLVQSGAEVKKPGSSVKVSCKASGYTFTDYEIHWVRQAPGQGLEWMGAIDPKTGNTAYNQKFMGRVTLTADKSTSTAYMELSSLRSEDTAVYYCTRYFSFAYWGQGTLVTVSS VL: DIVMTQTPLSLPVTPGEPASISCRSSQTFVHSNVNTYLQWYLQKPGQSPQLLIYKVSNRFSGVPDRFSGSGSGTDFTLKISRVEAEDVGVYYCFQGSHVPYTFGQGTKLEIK
no binding

Check the records and state binding result for hAb007LH1L1b (antibody, human IgG1, V domains shown, Humanized F3.81.19) VH: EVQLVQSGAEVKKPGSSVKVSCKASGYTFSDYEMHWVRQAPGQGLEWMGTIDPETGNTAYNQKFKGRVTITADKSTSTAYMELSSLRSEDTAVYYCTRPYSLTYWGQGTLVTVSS VL: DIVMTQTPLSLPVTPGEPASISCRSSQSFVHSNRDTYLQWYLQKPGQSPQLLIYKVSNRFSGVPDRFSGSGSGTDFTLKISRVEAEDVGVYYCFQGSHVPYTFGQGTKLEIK
no binding
